Data origin: patent US6121278A

- measurement.target: purified recombinant human PARP (Homo sapiens)
- Sequence (P09874 whole entry): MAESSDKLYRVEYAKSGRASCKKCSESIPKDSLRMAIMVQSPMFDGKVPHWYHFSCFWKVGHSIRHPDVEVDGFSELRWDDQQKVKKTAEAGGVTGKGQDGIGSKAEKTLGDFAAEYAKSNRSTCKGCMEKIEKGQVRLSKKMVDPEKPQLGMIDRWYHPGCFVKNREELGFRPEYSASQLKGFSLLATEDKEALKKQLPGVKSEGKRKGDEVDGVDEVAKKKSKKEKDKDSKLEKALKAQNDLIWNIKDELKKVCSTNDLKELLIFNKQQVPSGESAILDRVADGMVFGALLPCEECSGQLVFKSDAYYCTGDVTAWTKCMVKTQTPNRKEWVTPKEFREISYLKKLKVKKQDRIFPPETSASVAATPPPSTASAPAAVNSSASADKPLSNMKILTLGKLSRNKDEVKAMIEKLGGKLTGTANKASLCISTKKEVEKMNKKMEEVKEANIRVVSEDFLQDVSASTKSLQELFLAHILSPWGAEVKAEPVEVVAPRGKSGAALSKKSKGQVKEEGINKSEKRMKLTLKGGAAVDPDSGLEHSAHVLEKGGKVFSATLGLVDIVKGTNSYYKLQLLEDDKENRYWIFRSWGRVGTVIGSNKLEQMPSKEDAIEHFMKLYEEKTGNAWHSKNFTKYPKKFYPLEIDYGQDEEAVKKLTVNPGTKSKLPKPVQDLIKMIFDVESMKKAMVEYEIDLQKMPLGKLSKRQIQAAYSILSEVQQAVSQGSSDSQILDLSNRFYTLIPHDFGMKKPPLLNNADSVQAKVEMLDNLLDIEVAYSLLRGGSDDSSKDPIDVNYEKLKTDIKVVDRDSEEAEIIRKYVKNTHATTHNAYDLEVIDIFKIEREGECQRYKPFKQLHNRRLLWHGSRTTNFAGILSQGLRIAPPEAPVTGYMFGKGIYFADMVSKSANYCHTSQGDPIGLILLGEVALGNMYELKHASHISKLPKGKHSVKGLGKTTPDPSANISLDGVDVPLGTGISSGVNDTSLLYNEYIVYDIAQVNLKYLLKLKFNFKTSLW
- protocol: PARP enzyme assay, [3H]NAD incorporation
- condition.info: 25° C., 15 minutes; PARP inhibition; read-out: Approximate IC50's
pIC50: −log10 of the molar value.
result.type: pIC50

Value wanted: pIC50 (purified recombinant human PARP (Homo sapiens)) of entry `Nc1ccc2c(c1)oc(=O)c1ccccc12`
~5.40
